All figures here come from BigSolDB 2.1.

Settings: in acetonitrile, 303.15 K
MEASUREMENT_KIND: solubility (mole fraction)
Give the figure by itself; no unit, no explanation.

State the recorded solubility (mole fraction) for this entry: NC(=O)c1ccc(N)cc1 0.00298

* * *

Conditions: in isobutanol, 308.15 K
MEASUREMENT_KIND: solubility (mole fraction)
Give the figure by itself; no unit, no explanation.

State the recorded solubility (mole fraction) for this entry: NC(=O)c1ccc(N)cc1 0.00342

* * *

Settings: in n-propanol, 323.15 K
MEASUREMENT_KIND: solubility (mole fraction)
Give the figure by itself; no unit, no explanation.

State the recorded solubility (mole fraction) for this entry: NC(=O)c1ccc(N)cc1 0.0117
